molecular target: Replicase polyprotein 1ab (Severe acute respiratory syndrome coronavirus 2, UniProt P0DTD1); experiment: Inhibition of SARS CoV-2 main protease using DABCYL-KTSAVLQ1SGFRKM-E(EDANS)-NH2 as substrate by FRET based assay
pIC50: −log10 of the molar value. Starred links: 1 amine or outer side, 2 acyl side, 3 side chain; linkers in the order of their positions; H or OH if unused. Non-standard residues stand in square brackets, D forms with d. Residues, ends and D or L forms follow the SMILES beside them. X1 = N#Cc1cc(C[C@H](N[*:1])C(=O)[*:2])ccn1; Tle = CC(C)(C)[C@H](N)C(=O)O; Thz = O=C(O)[C@@H]1CSCN1; Abu = CC[C@H](N)C(=O)O
endpoint label: pIC50

compound=CC(C)C[C@@H]1NC(=O)[C@H](CCCNC(=N)N)NC(=O)[C@H](C)NC(=O)[C@@H]2CSC(=N2)c2cc(ccn2)C[C@@H](C(N)=O)NC(=O)[C@H](CCC(=O)O)NC1=O result="< 4.00"
compound=CC(C)C[C@@H]1NC(=O)[C@H](C(C)C)NC(=O)[C@@H]2CSC(=N2)c2cc(ccn2)C[C@@H](C(N)=O)NC(=O)[C@H](CO)NC(=O)[C@H](CCC(N)=O)NC1=O result="< 4.00"
compound="CC(C)C[C@H](NC(=O)[C@@H](NC(=O)[C@H](C)NC(=O)[C@H](C)NC(=O)[C@@H]1CSCN1)C(C)C)C(=O)N[C@@H](CCC(N)=O)C(=O)N[C@@H](C)C(=O)N[C@@H](Cc1ccnc(C#N)c1)C(N)=O (H-[Thz]AAVLQA[X1]-NH2)" result="< 4.00"
compound=CC(C)C[C@@H]1NC(=O)[C@H](C(C)C)NC(=O)[C@H](C(C)C)NC(=O)[C@@H]2CSC(=N2)c2cc(ccn2)C[C@@H](C(N)=O)NC(=O)[C@H](CCC(=O)O)NC1=O result="< 4.00"
compound="CC[C@H](NC(C)=O)C(=O)N[C@H](C(=O)N[C@@H](CC(C)C)C(=O)N[C@@H](CCC(N)=O)C(N)=O)C(C)(C)C (Ac-[Abu][Tle]LQ-NH2)" result="< 4.00"
compound=CC(C)C[C@@H]1NC(=O)[C@H](C(C)C)NC(=O)[C@H](C)NC(=O)[C@H](C)NC(=O)[C@@H]2CSC(=N2)c2cc(ccn2)C[C@@H](C(N)=O)NC(=O)[C@H](C)NC(=O)[C@H](CC(N)=O)NC1=O result="< 4.00"
